- Assay overview: activity coefficient (dimensionless); of the first substance listed, at infinite dilution; xn = mol fraction of the nth substance listed
- Condition details: 308.15 K; 101.33 kPa; Liquid; Chromatography; x1 = 0
Endpoint: activity coefficient

[
  {
    "Molecule": "CC(C)CC(C)(C)C [2,2,4-trimethylpentane] + CC[N+]1(C)CCOCC1.N#CN=C=[N-]",
    "activity coefficient": 1070
  }
]

a = CCCCCC [hexane] + CC[N+]1(C)CCOCC1.N#CN=C=[N-]
b = C=CCCCC [hex-1-ene] + CC[N+]1(C)CCOCC1.N#CN=C=[N-]
c = CCCCCCC [heptane] + CC[N+]1(C)CCOCC1.N#CN=C=[N-]
Q: Arrange items by their activity coefficient values in increasing order. # respond with the labels, arranged in the requested order
Result: b, a, c
(b: 177, a: 539, c: 831)

* * *

- Assay overview: activity coefficient (dimensionless); of the first substance listed, at infinite dilution; xn = mol fraction of the nth substance listed
- Condition details: 298.15 K; 101.33 kPa; Liquid; Chromatography; x1 = 0
Endpoint: activity coefficient

[
  {
    "Molecule": "CCCCCCC [heptane] + CC[N+]1(C)CCOCC1.N#CN=C=[N-]",
    "activity coefficient": 953
  }
]

a = C=CCCCC [hex-1-ene] + CC[N+]1(C)CCOCC1.N#CN=C=[N-]
b = CCCCCC [hexane] + CC[N+]1(C)CCOCC1.N#CN=C=[N-]
c = CC(C)CC(C)(C)C [2,2,4-trimethylpentane] + CC[N+]1(C)CCOCC1.N#CN=C=[N-]
Q: Arrange items by their activity coefficient values in increasing order. # respond with the labels, arranged in the requested order
Result: a, b, c

* * *

- Assay overview: activity coefficient (dimensionless); of the first substance listed, at infinite dilution; xn = mol fraction of the nth substance listed
- Condition details: 368.15 K; 101.33 kPa; Liquid; Chromatography; x1 = 0
Endpoint: activity coefficient

Some solved cases for reference:
[
  {
    "Compound": "CC1CCCCC1 [methylcyclohexane] + CC[N+]1(C)CCOCC1.N#CN=C=[N-]",
    "activity coefficient": 194
  },
  {
    "Compound": "Cc1ccccc1 [toluene] + CC[N+]1(C)CCOCC1.N#CN=C=[N-]",
    "activity coefficient": 8.99
  }
]

A = CCCC(=O)OC [methyl butanoate] + CC[N+]1(C)CCOCC1.N#CN=C=[N-]
B = C1CCCCCC1 [cycloheptane] + CC[N+]1(C)CCOCC1.N#CN=C=[N-]
C = CC(C)CO [2-methyl-1-propanol] + CC[N+]1(C)CCOCC1.N#CN=C=[N-]
D = c1ccccc1 [benzene] + CC[N+]1(C)CCOCC1.N#CN=C=[N-]
E = CCCc1ccccc1 [propylbenzene] + CC[N+]1(C)CCOCC1.N#CN=C=[N-]
Q: Hey, quick one: sort these by activity coefficient, largest value first please. # respond with the labels, arranged in the requested order
Result: B, E, A, D, C
(B: 161, E: 29.2, A: 10.5, D: 5.2, C: 2.67)

* * *

- Assay overview: activity coefficient (dimensionless); of the first substance listed, at infinite dilution; xn = mol fraction of the nth substance listed
- Condition details: 318.15 K; 101.33 kPa; Liquid; Chromatography; x1 = 0
Endpoint: activity coefficient

[
  {
    "Compound": "c1ccncc1 [pyridine] + CC[N+]1(C)CCOCC1.N#CN=C=[N-]",
    "Endpoint": "activity coefficient",
    "Result value": 1.74
  },
  {
    "Compound": "CCO [ethanol] + CC[N+]1(C)CCOCC1.N#CN=C=[N-]",
    "Endpoint": "activity coefficient",
    "Result value": 1.2
  },
  {
    "Compound": "C=C(C)c1ccccc1 [(1-methylethenyl)benzene] + CC[N+]1(C)CCOCC1.N#CN=C=[N-]",
    "Endpoint": "activity coefficient",
    "Result value": 10.5
  },
  {
    "Compound": "CC(C)=O [acetone] + CC[N+]1(C)CCOCC1.N#CN=C=[N-]",
    "Endpoint": "activity coefficient",
    "Result value": 1.61
  },
  {
    "Compound": "Cc1ccccc1 [toluene] + CC[N+]1(C)CCOCC1.N#CN=C=[N-]",
    "Endpoint": "activity coefficient",
    "Result value": 7.87
  }
]

A = c1ccsc1 [thiophene] + CC[N+]1(C)CCOCC1.N#CN=C=[N-]
B = C=CCCCCCCCC [1-decene] + CC[N+]1(C)CCOCC1.N#CN=C=[N-]
C = CCCCCCCCCC [decane] + CC[N+]1(C)CCOCC1.N#CN=C=[N-]
D = CO [methanol] + CC[N+]1(C)CCOCC1.N#CN=C=[N-]
Q: Hey, quick one: sort these by activity coefficient, largest value first please. # respond with the labels, arranged in the requested order
Result: C, B, A, D

* * *

- Assay overview: activity coefficient (dimensionless); of the first substance listed, at infinite dilution; xn = mol fraction of the nth substance listed
- Condition details: 358.15 K; 101.33 kPa; Liquid; Chromatography; x1 = 0
Endpoint: activity coefficient

Some solved cases for reference:
[
  {
    "Molecule": "CCC(C)O (stereo not given) [butan-2-ol] + CC[N+]1(C)CCOCC1.N#CN=C=[N-]",
    "activity coefficient": 2.83
  },
  {
    "Molecule": "CC1CCCCC1 [methylcyclohexane] + CC[N+]1(C)CCOCC1.N#CN=C=[N-]",
    "activity coefficient": 208
  },
  {
    "Molecule": "CC(C)O [propan-2-ol] + CC[N+]1(C)CCOCC1.N#CN=C=[N-]",
    "activity coefficient": 1.96
  },
  {
    "Molecule": "c1ccsc1 [thiophene] + CC[N+]1(C)CCOCC1.N#CN=C=[N-]",
    "activity coefficient": 2.71
  },
  {
    "Molecule": "CCCCCCCCCC [decane] + CC[N+]1(C)CCOCC1.N#CN=C=[N-]",
    "activity coefficient": 1610
  }
]

P = O [water] + CC[N+]1(C)CCOCC1.N#CN=C=[N-]
Q = CCCO [propan-1-ol] + CC[N+]1(C)CCOCC1.N#CN=C=[N-]
R = CCCc1ccccc1 [propylbenzene] + CC[N+]1(C)CCOCC1.N#CN=C=[N-]
S = C=C(C)c1ccccc1 [(1-methylethenyl)benzene] + CC[N+]1(C)CCOCC1.N#CN=C=[N-]
T = C=CCCCCCC [oct-1-ene] + CC[N+]1(C)CCOCC1.N#CN=C=[N-]
Q: Arrange items by their activity coefficient values in increasing order. # respond with the labels, arranged in the requested order
Result: P, Q, S, R, T

* * *

- Assay overview: activity coefficient (dimensionless); of the first substance listed, at infinite dilution; xn = mol fraction of the nth substance listed
- Condition details: 318.15 K; 101.33 kPa; Liquid; Chromatography; x1 = 0
Endpoint: activity coefficient

[
  {
    "Compound": "C1CCCCC1 [cyclohexane] + CC[N+]1(C)CCOCC1.N#CN=C=[N-]",
    "activity coefficient": 168
  }
]

1 = C=CCCCC [hex-1-ene] + CC[N+]1(C)CCOCC1.N#CN=C=[N-]
2 = C1CCOC1 [tetrahydrofuran] + CC[N+]1(C)CCOCC1.N#CN=C=[N-]
3 = C#CCCCCCC [1-octyne] + CC[N+]1(C)CCOCC1.N#CN=C=[N-]
4 = CCc1ccccc1 [ethylbenzene] + CC[N+]1(C)CCOCC1.N#CN=C=[N-]
Q: Hey, quick one: sort these by activity coefficient, largest value first please. # respond with the labels, arranged in the requested order
Result: 1, 3, 4, 2
(1: 163, 3: 84.2, 4: 15.1, 2: 3.3)

* * *

- Assay overview: activity coefficient (dimensionless); of the first substance listed, at infinite dilution; xn = mol fraction of the nth substance listed
- Condition details: 338.15 K; 101.33 kPa; Liquid; Chromatography; x1 = 0
Endpoint: activity coefficient

Some solved cases for reference:
[
  {
    "Compound": "CCCOCCC [dipropyl ether] + CC[N+]1(C)CCOCC1.N#CN=C=[N-]",
    "Result value": 112
  },
  {
    "Compound": "CCOC(C)=O [ethyl acetate] + CC[N+]1(C)CCOCC1.N#CN=C=[N-]",
    "Result value": 6.19
  },
  {
    "Compound": "C=CCCCCCCCC [1-decene] + CC[N+]1(C)CCOCC1.N#CN=C=[N-]",
    "Result value": 960
  },
  {
    "Compound": "CCCO [propan-1-ol] + CC[N+]1(C)CCOCC1.N#CN=C=[N-]",
    "Result value": 1.84
  },
  {
    "Compound": "CCCC=O [butanal] + CC[N+]1(C)CCOCC1.N#CN=C=[N-]",
    "Result value": 3.79
  }
]

P = CCC(=O)CC [pentan-3-one] + CC[N+]1(C)CCOCC1.N#CN=C=[N-]
Q = C=C(C)c1ccccc1 [(1-methylethenyl)benzene] + CC[N+]1(C)CCOCC1.N#CN=C=[N-]
R = COC(C)(C)C [2-methoxy-2-methylpropane] + CC[N+]1(C)CCOCC1.N#CN=C=[N-]
Q: Arrange items by their activity coefficient values in increasing order. # respond with the labels, arranged in the requested order
Result: P, Q, R

I = c1ccccc1 [benzene] + CC[N+]1(C)CCOCC1.N#CN=C=[N-]
II = C#CCCCCCC [1-octyne] + CC[N+]1(C)CCOCC1.N#CN=C=[N-]
III = CCCCCCCCC [nonane] + CC[N+]1(C)CCOCC1.N#CN=C=[N-]
IV = CC(C)c1ccccc1 [isopropylbenzene] + CC[N+]1(C)CCOCC1.N#CN=C=[N-]
V = CCC(C)O (stereo not given) [butan-2-ol] + CC[N+]1(C)CCOCC1.N#CN=C=[N-]
Q: Arrange items by their activity coefficient values in increasing order. # respond with the labels, arranged in the requested order
Result: V, I, IV, II, III
(V: 2.9, I: 4.76, IV: 26.9, II: 84.9, III: 1190)
